# Test system: human LINE-1
# ASSAY PROCEDURE: Human LINE-1 retrotransposition assay, related experiments with islatravir (pYX017, HeLa cells, Tables 12 and 13)
# Type: cell-based
# EXPERIMENTAL PARAMETERS: Homo sapiens; HeLa cells, pYX017, 72 h, n = 3; read-out: Human LINE-1 IC50, Average
OBSERVATION TYPE: IC50 (nM)

> print(dat)
                                    molecule        target  units.of.measure  operator.symbol  endpoint.result
 1  Cc1cc(/C=C/C#N)cc(C)c1Nc1ccnc(Nc2ccc(C#N)cc2)n1 [Rilpivirine]  human LINE-1                nM                >            15100
 2  C[C@@H]1CCO[C@H]2Cn3cc(C(=O)NCc4ccc(F)cc4F)c(=O)c(O)c3C(=O)N12 [Dolutegravir sodium]  human LINE-1                nM                >             9380
 3  Cc1nnc(C(=O)NC(C)(C)c2nc(C(=O)NCc3ccc(F)cc3)c(O)c(=O)n2C)o1 [Raltegravir potassium]  human LINE-1                nM                >             9860
 4  Cc1ccnc2c1NC(=O)c1cccnc1N2C1CC1 [Nevirapine]  human LINE-1                nM                >            50000
 5  C#C[C@@]1(CO)C=C[C@H](n2cc(C)c(=O)[nH]c2=O)O1 [Censavudine]  human LINE-1                nM                =              100
 6  O=C(NCc1c(F)cc(F)cc1F)c1cn2c(c(O)c1=O)C(=O)N1[C@H]3CC[C@H](C3)O[C@@H]1C2 [Bictegravir]  human LINE-1                nM                >            12400
 7  O=C1Nc2ccc(Cl)cc2[C@@](C#CC2CC2)(C(F)(F)F)O1 [Efavirenz]  human LINE-1                nM                >              250
 8  Nc1ccn([C@@H]2CS[C@H](CO)O2)c(=O)n1 [Lamivudine]  human LINE-1                nM                =              800
 9  C#C[C@]1(CO)O[C@@H](n2cnc3c(N)nc(F)nc32)C[C@@H]1O [Islatravir, 2′-deoxy-4′-ethynyl-2-fluoroadenosine]  human LINE-1                nM                =             1.29
10  Cc1cn([C@H]2C[C@H](N=[N+]=[N-])[C@@H](CO)O2)c(=O)[nH]c1=O [Zidovudine]  human LINE-1                nM                =              810
